System: HCI13 (cells of an ER-positive luminal breast cancer xenograft)
Experiment: cell viability (% of vehicle); higher = less cytotoxic;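 note: PDX cells carrying CMV promoter-driven luciferase, viability read as total photon flux per second by IVIS imaging following D-luciferin, vehicle control 0.1% DMSO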
Details: 10 µM; 72 h
result type: cell viability
Numbers only.

INSERT INTO results (compound, system_under_test, test_result) VALUES
  ('COC(=O)c1ccc2c(c1)NC(=O)C2=C(Nc1ccc(N(C)C(=O)CN2CCN(C)CC2)cc1)c1ccccc1', 'HCI13', 71.2),
  ('Cl.Nc1c2c(nc3ccccc13)CCCC2 [Tacrine hydrochloride]', 'HCI13', 87.7);

For each listed entry, give its cell viability.
1. CCOC(=O)C(CCc1ccccc1)NC(C)C(=O)N1C(C(=O)O)CC2CCCC21 (configuration not stated)
2. CCCCN1CCCCC1C(=O)Nc1c(C)cccc1C.Cl (configuration not stated) [Bupivacaine HCl]
3. NCC1OC(OC2C(N)CC(N)C(OC3OC(CO)C(O)C(N)C3O)C2O)C(O)C(O)C1O.O=S(=O)(O)O (configuration not stated) [Kanamycin Sulfate]
4. COCCn1c2c([n+](Cc3cnccn3)c1C)C(=O)c1ccccc1C2=O.[Br-]
5. C#Cc1cccc(Nc2ncnc3cc(OCCOC)c(OCCOC)cc23)c1.Cl [Erlotinib Hydrochloride]
6. Cc1nc(Nc2ncc(C(=O)Nc3c(C)cccc3Cl)s2)cc(N2CCN(CCO)CC2)n1
7. CCOc1nc2cccc(C(=O)O)c2n1Cc1ccc(-c2ccccc2-c2nn[nH]n2)cc1

1. 115
2. 106
3. 120
4. 68.9
5. 69.8
6. 40.2
7. 128

Please report cell viability for every entry that follows.
1. CCn1cc(C(=O)O)c(=O)c2cc(F)c(N3CCN(C)CC3)cc21.CS(=O)(=O)O [Pefloxacin Mesylate]
2. CCN1CCN(C(=O)NC(C(=O)NC2C(=O)N3C(C(=O)O)=C(CSc4nnnn4C)CSC23)c2ccc(O)cc2)C(=O)C1=O (configuration not stated)
3. CCCCc1nc2cc(C=CC(=O)NO)ccc2n1CCN(CC)CC [Pracinostat (SB939)]
4. Clc1ccc(C(c2ccccc2Cl)C(Cl)Cl)cc1 (configuration not stated)

1. 160
2. 174
3. 88.1
4. 91.2

Give measured cell viability for every item shown.
1. CC(C)(Oc1ccc(Cl)cc1)C(=O)O
2. CC(C)C(N)C(=O)OCC(CO)OCn1cnc2c(=O)nc(N)[nH]c21.Cl (configuration not stated) [Valganciclovir HCl]
3. S=P(N1CC1)(N1CC1)N1CC1
4. Nc1nc(F)nc2c1ncn2C1OC(CO)C(O)C1O (configuration not stated)

[94.8, 55.1, 111, 165]

---

Tested on: HCI16 (cells of a triple-negative basal-like breast cancer xenograft)
Assay: cell viability (% of vehicle); higher = less cytotoxic
Settings: 10 µM; 72 h
I'd be grateful if you could share measured cell viability for these entries.
One number for each entry.

Some solved cases for reference:
INSERT INTO results (compound, system_under_test, test_result) VALUES
  ('O=C(O)CCNC(=O)c1ccccc1 [Betamipron]', 'HCI16', 98.9),
  ('NCC1CCC(C(=O)O)CC1 (centres undefined) [Tranexamic Acid]', 'HCI16', 102),
  ('CS(=O)(=O)O.Cc1ccc(NC(=O)c2ccc(CN3CCN(C)CC3)cc2)cc1Nc1nccc(-c2cccnc2)n1 [Imatinib Mesylate (STI571)]', 'HCI16', 99);

Here is the next item to consider.
Given the compound NC(=O)OCC(COC(N)=O)c1ccccc1 [Felbamate] , what is its reported cell viability? 101
